# credit: PubChem BioAssay (NCATS)

# measurementDescription: qHTS for Inhibitors of Cell Surface uPA Generation: Validation Assay (AID 493164);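 also: RAW 264.7 macrophage cells exposed to compound for 18 h; 0% is about no effect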
# runParameters: mouse cells, plasminogen activation; series mostly up to 38.3 µM
Calls of active or inactive are those of the source. Calls follow the shape of the dose curve; as a rule, active = well fitted curve in the direction sought with a large enough effect; inconclusive = small, poorly fitted or top-dose-only effect, or effect the other way, or another doubt; inactive = no such curve, though single readings can be large or run the other way.
measuredMetric: outcome

Prompt: Look up outcome of O=C(O)C1=CCCNC1 and report it.
Response: inactive

Prompt: Given the compound Nc1ncnc2c1ncn2C1CCCO1 (stereo not given) , write its reported outcome.
Response: inactive

Prompt: Hello, please tell me recorded outcome for this one: CC1=C(C(=O)O)N2C(=O)[C@@H](NC(=O)C(N)C3=CCC=CC3)[C@H]2SC1 (stereo not given in full)
Response: inactive

Prompt: Provide only the value of recorded outcome for C=CCN1CCc2c(cc(O)c(O)c2Cl)C(c2ccccc2)C1 (stereo not given)
Response: inactive

Consider the following items and state reported outcome for each.
1. Cc1nc(N=Nc2ccc(C(=O)O)cc2)c(COP(=O)(O)O)c(C=O)c1O
2. CC(C)(C)c1ccc(/C=C/C(=O)Nc2ccc3c(c2)OCCO3)cc1
3. Nc1ccc(-c2ccc3ccccc3n2)cc1
4. CCCc1c(OCCCOc2ccc(OCC(=O)O)cc2)ccc(C(C)=O)c1O

Response:
["inactive", "inactive", "inactive", "inactive"]

Provide the reported outcome of each entry below, same order.
1. CNc1ncnc2c1ncn2[C@H]1C[C@H](OP(=O)(O)O)[C@@H](COP(=O)(O)O)O1
2. NC1CONC1=O (stereo not given)
3. NC1CCN(O)C1=O (stereo not given)

Response:
1: inactive; 2: inactive; 3: inactive

Please look at the items below and tell me outcome for each one, in order.
1. NC(=O)CNCCC(c1ccccc1)c1ccccc1
2. O=C(c1ccc2c(c1)OCCO2)N1CCCCC1
3. CCCCCCN(CCCCCC)C(=O)Cc1c(-c2ccc(F)cc2)[nH]c2ccccc12
4. NC1(C(=O)O)CC1
5. O=C(O)CCC/C=C\C[C@@H]1[C@@H](/C=C/[C@H](O)C2Cc3ccccc3C2)[C@@H](F)C[C@@H]1O

Response:
inactive
inactive
inactive
inactive
inactive

---

# measurementDescription: qHTS for differential inhibitors of proliferation of Plasmodium falciparum line 3D7 (AID 1876)
# runParameters: P. falciparum 3D7 proliferation inhibition; series mostly up to 28.7 µM
Inconclusive results are not listed. Activity calls are given as the source filed them. Calls come from the whole dose curve; as a rule, active = well fitted curve in the direction sought with a large enough effect; inconclusive = small, poorly fitted or top-dose-only effect, or another doubt; inactive = no such curve, though single readings can be large or run the other way.
Returns: one label drawn from 1.0 = active, 0.0 = inactive

Use these answered entries as a reference point.
Prompt: Please share the test call associated with CCCc1c(OCCCOc2ccc(OCC(=O)O)cc2)ccc(C(C)=O)c1O .
Response: 0.0

Prompt: Short answer needed: outcome of this test for COc1cc(CC(=O)O)ccc1O ?
Response: 0.0

Prompt: Which outcome was entered for the compound COc1ccccc1N1CCN(CCCCNC(=O)c2ccc3ccccc3c2)CC1 in this test?
Response: 1.0

Prompt: Outcome? Oc1cc(O)c2c(c1)O[C@H](c1ccc(O)c(O)c1)[C@@H](O)C2
Response: 0.0

Prompt: Called result for CC(=O)/C(C)=N/O
Response: 0.0

Prompt: What outcome does the record of this test show for NC(N)=NC(N)=Nc1cccc(Cl)c1 ?
Response: 1.0

Prompt: Lab log entry: CC(=O)[C@H]1CCC2C3CC=C4C[C@@H](OS(=O)(=O)O)CC[C@]4(C)C3CC[C@@]21C (some centres not stated) — outcome as called in the assay?
Response: 0.0

Prompt: Fill in: this test's call for O=C(O)C1CCCNC1 (configuration not stated) is ___
Response: 0.0

Prompt: Hello, I am checking results. What call was entered for NS(=O)(=O)c1cccc2c1c([N+](=O)[O-])cc1nc(O)c(O)nc12 ?
Response: 0.0

Prompt: Query: recorded result category for COc1ccccc1N1CCN(CCCCN2C(=O)c3ccccc3C2=O)CC1 in this test
Response: 1.0

Next:
Prompt: Assay outcome for N=C(N)SCCc1cnc[nH]1 : what was it?
Response: 0.0

Prompt: What was the test verdict on CCCCCCC/C=C\CCCCCCCCC(=O)O ?
Response: 0.0
